Data origin, for the record: a melting point compilation (Tetko et al.; mined from patent text by program, amines drawn as free bases though some values may be those of a salt)

quantityName: melting point

{"columns": ["compound", "measuredValue"],
 "data": [
  ["COc1ccc(C(=O)c2ccco2)cc1OC", "112 to 114 °C"],
  ["CC1(C)CC(=O)C(C(=O)Nc2ccc(Cl)c(Cl)c2)C(=O)C1", "124 to 129 °C"],
  ["CC(C)c1nc(C(N)(C(F)(F)F)C(F)(F)F)[nH]c1-c1ccc(S(C)(=O)=O)cc1", "155 to 157 °C"],
  ["CCOC(=O)CCn1c(=O)n2cc(C)cc2c2ccccc21", "74 to 76 °C"],
  ["CCS(=O)c1ccc(N2CC(CNC(C)=S)OC2=O)cc1F (stereo not given)", "138 to 139 °C"],
  ["O=C(O)c1ccc(OCCCOc2ccccc2)cc1O", "161 °C"],
  ["COc1ccc(Br)c(C(=O)N2CCN(S(=O)(=O)c3cccc(F)c3)CC2)c1", "145 °C"],
  ["N#Cc1ccc(-c2ccc(Cl)cc2)cc1", "128 to 130 °C"],
  ["CCCCOC(=O)C(=O)Nc1cc(C#N)cc(NC(=O)C(=O)OCCCC)c1Cl", "118 to 120 °C"],
  ["CN1CCN(c2ccc(Br)c3c2C[C@H](NC(=O)c2ccc(C(F)(F)F)cc2)CC3)CC1", "229 to 230 °C"]
]}

* * *

Reported melting point values for a set of compounds

{"columns": ["querySmiles", "melting point (°C)"],
 "data": [
  ["COc1cc(N)c([N+](=O)[O-])cc1C(=O)O", 254],
  ["FC(F)(F)c1cc(Cl)c(-n2cnc(C(F)(F)C(F)(F)Cl)c2)c(Cl)c1", 101]
]}

* * *

{"columns": ["compound", "melting point"],
 "data": [
  ["N[C@@H]1CCN(Cc2ccccc2)C[C@H]1O (relative stereo)", "74.1 °C"],
  ["CC(=O)c1c(O)cccc1OCCCCCOc1ccc2cc(C(=O)O)ccc2c1", "190 to 193 °C"],
  ["CN=C(N)Nc1nc(CSCCNC2=NS(=O)N=C2N)cs1 (stereo unspecified)", "86 to 91 °C"],
  ["Cc1cc(-c2ccccc2)co1", "89 to 91 °C"],
  ["Cn1c(=O)nc(Sc2ccccc2)sc1=S", "116 to 118 °C"],
  ["O=C1NCCN1S(=O)(=O)N1CCCCC1", "201 °C"]
]}

* * *

Reported melting point values for a set of compounds

{"columns": ["compound", "melting point"],
 "data": [
  ["Cn1c(=O)c2c(ncn2CCCCCCl)n(C)c1=O", "78 to 80 °C"],
  ["CC1(C)C(C=CC(=O)O)C1C(=O)OCc1ccccc1 (stereo not given)", "69 °C"],
  ["CC(C)(C)c1cc(C=C2CCNC2=O)cc(C(C)(C)C)c1O", "216 to 218 °C"],
  ["C[Si](C)(C)C#Cc1cc(Cl)cnc1N", "108 °C"],
  ["Cc1ccc(NC(=O)c2ccc3ncccc3c2)cc1NC(=O)c1ccc(OCc2ccccc2)cc1", "227 to 228 °C"],
  ["COc1cc(-c2ccccc2)nc(SCC(=O)O)n1", "157 to 159 °C"],
  ["CS(=O)(=O)c1ccc(-c2c(-c3ccc(F)cc3)nn3c(-c4ccc(F)cc4)coc23)cc1", "289 to 291 °C"],
  ["CCOC(=O)CNC(=O)c1nc2ccc(NCCCN3CCC(OC(c4ccccc4)c4ccccc4)CC3)nn2c1C", "158 to 160 °C"],
  ["O=C(O)CC1(c2ccc(Cl)cc2)Oc2ccccc2O1", "138 °C"],
  ["O=C(O)COc1ccc(C(=O)c2ccc([N+](=O)[O-])cc2)c(Cl)c1Cl", "172 to 175 °C"],
  ["Cc1cccc2nc(Cn3cnc4c(N)ncnc43)n(-c3ccccc3C(C)C)c(=O)c12", "258 °C"],
  ["c1ccc(-c2nc3cnccc3[nH]2)cc1", "225 to 226 °C"],
  ["Cc1ccc(Sc2cc3c(cc2Sc2ccc(C)cc2)C(=O)c2c(c(O)c4cc(Sc5ccc(C)cc5)c(Sc5ccc(C)cc5)cc4c2O)C3=O)cc1", "> 265 °C"],
  ["COC(=O)Cc1cn(Cc2ccccc2)nc1O", "118 to 119 °C"],
  ["Cc1cccc(NC(=O)NC(C(=O)N(c2ccccc2)c2ccccc2)c2ccccc2)c1 (racemic)", "181 °C"],
  ["CCCC(OC(=O)c1ccncc1)C(=O)O (racemic)", "152 to 153 °C"],
  ["Cc1cc2c3c(ccc2[nH]1)OCC(CN1CC=C(c2c[nH]c4ccccc24)CC1)O3 (stereo not given)", "212 to 215 °C"],
  ["CC(CO)N1c2ccccc2Sc2ccc(C(N)=S)cc21 (racemic)", "152 °C"],
  ["c1ccc(Oc2ccncc2)cc1", "46 to 49 °C"],
  ["COC(=O)N(Cc1ccccc1)[C@H]1CC[C@H](c2ccc(O)cc2)CC1", "61 to 66 °C"]
]}

* * *

Reported melting point values for a set of compounds

{"columns": ["compound", "melting point"],
 "data": [
  ["CC(=O)OCC1OC(n2cc(C(Br)=CBr)c(=O)[nH]c2=O)C(OC(C)=O)C1OC(C)=O (stereo not given)", "83 to 85 °C"],
  ["CC1(C)C(=NOCc2ccccc2)C(c2ccccc2)=C1c1ccc(S(C)(=O)=O)cc1", "119 to 121 °C"],
  ["O=[N+]([O-])c1cnc(NCC(O)CO)cn1 (stereo not given)", "185 to 187 °C"],
  ["Cc1ccc(O)c(C(OC2CCN(C)CC2)c2nc3ccccc3[nH]2)c1 (stereo not given)", "151 °C"],
  ["CC(C)N(C=Nc1ccncc1O)C(C)C", "77 to 79 °C"],
  ["CCOC(=O)c1cccn2cc(C(Cl)Cl)nc12", "108 to 110 °C"],
  ["O=C(O)Cc1ccc(NC(=O)C(Cc2ccccc2)NS(=O)(=O)c2ccc(Cl)cc2)cc1 (racemic)", "204 to 206 °C"],
  ["Cc1cc(C(=O)NN=C(N)CS(=O)(=O)c2ccccc2)oc1C", "197 to 199 °C"],
  ["COc1cccc(CNC(=O)c2nc3cccc(OCc4ccc(C#N)cc4)c3c(=O)[nH]2)c1", "218 to 220 °C"],
  ["CN(O)C(=O)c1ccc(C=Cc2ccccn2)cc1", "135 to 138 °C"]
]}

* * *

{"columns": ["molecule", "melting point"],
 "data": [
  ["Nc1ccc(CS(=O)(=O)Nc2ccccc2)cc1", "180 to 182 °C"],
  ["Cn1cc(C(=O)C(=O)N2CCN(c3nc4cc(C(=O)Nc5nc(C(C)(C)C)cs5)ccn4c(=O)c3/C=C/C(=O)O)CC2)nc1N", "210 to 216 °C"],
  ["O=[N+]([O-])c1cc(Cl)c2c(c1)C(F)(F)C(F)(F)S2", "61.5 to 62 °C"],
  ["Cc1cc(COc2ccc(S(=O)(=O)NC[C@@H](C(=O)NO)N3CCCCC3)cc2)c2ccccc2n1", "150 °C"],
  ["COc1cc(C=CC(=O)Nc2cnc3ccc(Cl)cc3c2-c2ccccc2C)cc(OC)c1OC(C)=O", "277 to 278 °C"],
  ["COc1ccccc1N1CCN(CC(C(=O)NC(C)(C)C)c2ccccn2)CC1 (centres undefined)", "138 to 139 °C"],
  ["Cn1cc(C(=O)NCc2ccc(Cl)cc2)c(=O)c2cc(CO)cc(I)c21", "242 to 244 °C"],
  ["Nc1ncnc2c1ncn2CC/C=C/P(=O)(O)O", "263 to 266 °C"],
  ["OCc1ccc(-c2ccc(OC(F)(F)F)c(F)c2)cn1", "51 to 53 °C"]
]}

* * *

Reported melting point values for a set of compounds
quantityName: melting point

{"columns": ["compound", "quantityName", "measuredValue"],
 "data": [
  ["Cc1ccc(C)c2c1C[C@@H](O)[C@@H]2Oc1cc(C(=O)N(C)C)cc2c1nc(C)n2C (relative stereo)", "melting point", "134 °C"],
  ["COCCn1c(C)c(C(=O)c2c(Cl)c(Cl)c(Cl)c(Cl)c2C(=O)O)c2ccccc21", "melting point", "182 to 184 °C"],
  ["O=c1n(CCCC2CCCC2)ccn1-c1ccc(NS(=O)(=O)c2ccc3c(c2)CCC(CNCC(O)c2cccnc2)O3)cc1 (centres undefined)", "melting point", "90 to 92 °C"],
  ["O=c1c(CCCCc2cccnc2)cc2cccnc2n1-c1cccc([N+](=O)[O-])c1", "melting point", "184 to 185 °C"],
  ["CN(C)C(=O)n1ccc(-c2ccc(Oc3ccc(F)cc3)cc2)n1", "melting point", "59 to 63 °C"],
  ["Cc1ccc(Cc2cnc(NCCCCNc3ncc(Cl)cc3C)[nH]c2=O)cn1", "melting point", "202 to 203 °C"],
  ["O=C(Oc1ccccc1)n1c(C(F)(F)F)nc2c([N+](=O)[O-])cc(C(F)(F)F)cc21", "melting point", "100 to 103 °C"],
  ["COC(=O)c1ccc(OC)cc1C(C)=O", "melting point", "48 to 50 °C"],
  ["Cc1cc(-c2cccc(C(F)(F)F)c2)c2nc(OCC(F)(F)F)cnc2c1", "melting point", "46 to 48 °C"]
]}
